procedure-details: physchem
assay-setup: octanol/water
Description: Partition coefficient, log P of the compound by HPLC analysis
Documented logP across a set of molecules
Answer with a bare number; do not write a unit.

Below, 3 molecules whose answers are already recorded.
>>> observed_value("CC(=O)Nc1ccc(OCC(O)CNC(C)C)cc1 (stereo unspecified)")
0.78
>>> observed_value("Cc1cccnc1")
1.2
>>> observed_value("c1ccc2ncccc2c1")
2.04

Ask: Return logP for the following molecule: Cc1ccnc2ccccc12
Result: 2.52

Ask: Return logP for the following molecule: c1ccc2nc3ccccc3nc2c1
Result: 2.81

Ask: Return logP for the following molecule: Brc1cnc2ccccc2c1
Result: 3.03

Ask: Return logP for the following molecule: COc1ccccc1
Result: 2.1

Ask: Return logP for the following molecule: c1ccc2cnccc2c1
Result: 2.09

Ask: Return logP for the following molecule: Nc1ccncc1
Result: 0.26

Ask: Return logP for the following molecule: c1ccc2nc3ccccc3cc2c1
Result: 3.39

Ask: Return logP for the following molecule: CC(=O)Nc1ccccc1 [ACETANILIDE]
Result: 1.14
